# assay.system: human MC4R receptor (human, UniProt P32245 1-332)
# Sequence (P32245 whole entry): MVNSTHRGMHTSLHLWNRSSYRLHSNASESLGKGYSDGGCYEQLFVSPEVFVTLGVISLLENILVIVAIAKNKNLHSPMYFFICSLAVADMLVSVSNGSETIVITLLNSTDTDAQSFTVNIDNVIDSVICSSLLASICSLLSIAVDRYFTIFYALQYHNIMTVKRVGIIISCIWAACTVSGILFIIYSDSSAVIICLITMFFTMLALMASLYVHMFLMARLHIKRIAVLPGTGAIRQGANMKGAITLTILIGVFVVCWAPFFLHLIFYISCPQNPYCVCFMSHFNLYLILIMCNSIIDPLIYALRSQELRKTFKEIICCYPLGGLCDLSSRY
# experiment: cell-based or functional assay
Starred links: 1 amine or outer side, 2 acyl side, 3 side chain; linkers in the order of their positions; H or OH if unused. Positions of bridges follow the written chain, without caps; N, C: chain ends. Non-standard residues stand in square brackets, D forms with d. dTyr(4-OMe) = O-methyl-D-tyrosine (4-OMe), COc1ccc(C[C@@H](N[*:1])C(=O)[*:2])cc1; d1Nal = N[C@H](Cc1cccc2ccccc12)C(=O)O; Cit = NC(=O)NCCC[C@H](N)C(=O)O; Nle = CCCC[C@H](N)C(=O)O; Orn = NCCC[C@H](N)C(=O)O; Aib = CC(C)(N)C(=O)O
# cAMP EC50 annotations
Report only the number, with the unit nM understood.

Before answering, review these 10 worked examples.
{"columns": ["binder", "cAMP EC50 (nM)"],
 "data": [
  ["Ac-RC[dA][Cit][dF]RWC-NH2 (disulfide 2-8) [CTX-1285]", 1.7],
  ["Ac-C[dA][Cit][dF]RWC-NH2 (disulfide 1-7; SMILES CC(=O)N[C@H]1CSSC[C@@H](C(N)=O)NC(=O)[C@H](Cc2c[nH]c3ccccc23)NC(=O)[C@H](CCCNC(=N)N)NC(=O)[C@@H](Cc2ccccc2)NC(=O)[C@H](CCCNC(N)=O)NC(=O)[C@@H](C)NC1=O) [CTX-1628]", 14],
  ["Ac-R[Nle]C[Orn][dF]RWC-NH2 (disulfide 3-8; SMILES CCCC[C@H](NC(=O)[C@H](CCCNC(=N)N)NC(C)=O)C(=O)N[C@H]1CSSC[C@@H](C(N)=O)NC(=O)[C@H](Cc2c[nH]c3ccccc23)NC(=O)[C@H](CCCNC(=N)N)NC(=O)[C@@H](Cc2ccccc2)NC(=O)[C@H](CCCN)NC1=O) [CTX-1617]", 0.21],
  ["Ac-RCA[Cit][dF]RWC-NH2 (disulfide 2-8) [CTX-1287]", 0.77],
  ["{CH2CO}-[Aib]H[dF]RWC-NH2 (thioether N-6; SMILES CC1(C)NC(=O)CSC[C@@H](C(N)=O)NC(=O)[C@H](Cc2c[nH]c3ccccc23)NC(=O)[C@H](CCCNC(=N)N)NC(=O)[C@@H](Cc2ccccc2)NC(=O)[C@H](Cc2c[nH]cn2)NC1=O) [CTX-1647]", 0.68],
  ["{CH2CO}-GR[dF]RWC-NH2 (thioether N-6; SMILES N=C(N)NCCC[C@@H]1NC(=O)CNC(=O)CSC[C@@H](C(N)=O)NC(=O)[C@H](Cc2c[nH]c3ccccc23)NC(=O)[C@H](CCCNC(=N)N)NC(=O)[C@@H](Cc2ccccc2)NC1=O) [CTX-1645]", 1.6],
  ["Ac-R[Nle]C[Cit]FRWC-NH2 (disulfide 3-8; SMILES CCCC[C@H](NC(=O)[C@H](CCCNC(=N)N)NC(C)=O)C(=O)N[C@H]1CSSC[C@@H](C(N)=O)NC(=O)[C@H](Cc2c[nH]c3ccccc23)NC(=O)[C@H](CCCNC(=N)N)NC(=O)[C@H](Cc2ccccc2)NC(=O)[C@H](CCCNC(N)=O)NC1=O) [CTX-1609]", 86],
  ["Ac-R[Nle]CR[dF]RFC-NH2 (disulfide 3-8; SMILES CCCC[C@H](NC(=O)[C@H](CCCNC(=N)N)NC(C)=O)C(=O)N[C@H]1CSSC[C@@H](C(N)=O)NC(=O)[C@H](Cc2ccccc2)NC(=O)[C@H](CCCNC(=N)N)NC(=O)[C@@H](Cc2ccccc2)NC(=O)[C@H](CCCNC(=N)N)NC1=O) [CTX-1622]", 41],
  ["Ac-R[Nle]CR[d1Nal]RWC-NH2 (disulfide 3-8; SMILES CCCC[C@H](NC(=O)[C@H](CCCNC(=N)N)NC(C)=O)C(=O)N[C@H]1CSSC[C@@H](C(N)=O)NC(=O)[C@H](Cc2c[nH]c3ccccc23)NC(=O)[C@H](CCCNC(=N)N)NC(=O)[C@@H](Cc2cccc3ccccc23)NC(=O)[C@H](CCCNC(=N)N)NC1=O) [CTX-1611]", 1.6],
  ["{CH2CO}-[dA]H[dF]RWC-NH2 (thioether N-6; SMILES C[C@H]1NC(=O)CSC[C@@H](C(N)=O)NC(=O)[C@H](Cc2c[nH]c3ccccc23)NC(=O)[C@H](CCCNC(=N)N)NC(=O)[C@@H](Cc2ccccc2)NC(=O)[C@H](Cc2c[nH]cn2)NC1=O) [CTX-1202]", 0.65]
]}

Request: Name the recorded cAMP EC50 for Ac-R[Nle]CR[dTyr(4-OMe)]RFC-NH2 (disulfide 3-8; SMILES CCCC[C@H](NC(=O)[C@H](CCCNC(=N)N)NC(C)=O)C(=O)N[C@H]1CSSC[C@@H](C(N)=O)NC(=O)[C@H](Cc2ccccc2)NC(=O)[C@H](CCCNC(=N)N)NC(=O)[C@@H](Cc2ccc(OC)cc2)NC(=O)[C@H](CCCNC(=N)N)NC1=O) [CTX-1624] .
Result: 12

Request: Name the recorded cAMP EC50 for Ac-RC[Aib]R[dF]RFC-NH2 (disulfide 2-8) [CTX-1601] .
Result: 11
